The measurements presented in this section are drawn from patent US12122763B2.

Molecular target: Androgen Receptor (AR) protein (Homo sapiens, UniProt P10275, T878A)
Construct: endogenous in cells; host or cells: LNCaP
Sequence (P10275 whole entry T878A): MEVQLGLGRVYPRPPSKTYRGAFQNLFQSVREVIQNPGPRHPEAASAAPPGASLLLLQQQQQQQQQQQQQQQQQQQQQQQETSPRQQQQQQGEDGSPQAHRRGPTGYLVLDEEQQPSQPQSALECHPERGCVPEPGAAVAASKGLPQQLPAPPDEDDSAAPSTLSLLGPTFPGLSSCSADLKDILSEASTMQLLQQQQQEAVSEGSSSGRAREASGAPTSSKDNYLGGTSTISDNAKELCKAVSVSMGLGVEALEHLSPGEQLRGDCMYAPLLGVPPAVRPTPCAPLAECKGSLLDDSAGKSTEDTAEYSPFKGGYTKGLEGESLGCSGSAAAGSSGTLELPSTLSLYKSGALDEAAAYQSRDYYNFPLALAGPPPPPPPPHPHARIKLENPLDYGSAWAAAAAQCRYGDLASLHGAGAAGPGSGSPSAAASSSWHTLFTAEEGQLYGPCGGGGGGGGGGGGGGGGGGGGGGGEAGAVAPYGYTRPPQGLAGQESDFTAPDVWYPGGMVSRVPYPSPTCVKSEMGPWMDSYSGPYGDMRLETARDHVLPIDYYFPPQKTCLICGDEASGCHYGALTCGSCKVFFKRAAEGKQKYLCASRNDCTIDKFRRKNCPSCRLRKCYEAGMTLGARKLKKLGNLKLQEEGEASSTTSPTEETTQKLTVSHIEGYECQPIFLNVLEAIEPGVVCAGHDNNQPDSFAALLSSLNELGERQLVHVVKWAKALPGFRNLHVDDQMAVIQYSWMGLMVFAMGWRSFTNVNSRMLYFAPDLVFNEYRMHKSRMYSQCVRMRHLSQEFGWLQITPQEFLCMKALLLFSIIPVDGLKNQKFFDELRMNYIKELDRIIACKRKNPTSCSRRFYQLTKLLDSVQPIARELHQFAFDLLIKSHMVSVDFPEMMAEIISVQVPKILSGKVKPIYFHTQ
Sequence (Q96SW2 whole entry partner): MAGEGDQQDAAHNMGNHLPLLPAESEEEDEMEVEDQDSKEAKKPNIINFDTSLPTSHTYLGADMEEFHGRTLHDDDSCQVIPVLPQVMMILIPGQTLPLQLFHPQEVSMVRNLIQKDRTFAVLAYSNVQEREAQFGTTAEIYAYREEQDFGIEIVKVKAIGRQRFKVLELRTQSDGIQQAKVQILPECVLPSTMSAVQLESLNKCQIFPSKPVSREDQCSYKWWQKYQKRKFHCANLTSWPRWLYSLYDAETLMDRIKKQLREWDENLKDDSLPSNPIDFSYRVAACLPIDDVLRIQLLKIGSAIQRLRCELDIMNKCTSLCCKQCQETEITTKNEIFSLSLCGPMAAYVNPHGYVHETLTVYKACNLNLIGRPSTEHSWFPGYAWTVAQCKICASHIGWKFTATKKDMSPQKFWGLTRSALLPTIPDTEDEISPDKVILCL
Test: Androgen Receptor (AR) protein degradation assay in LNCaP cells, western blotting
Assay type: cell-based
Conditions: 20 h, 1 μM compound
Parameter threshold = 90%. Response is True when inhibition at 1 µM meets or exceeds it, else False.

Query string: # check: inhibition at 1 µM of N#Cc1ccc(N2CCC(C(=O)Nc3ccc(N4CCC(CN5CCN(c6ccc7c(c6)C(=O)N(C6CCC(=O)NC6=O)C7=O)CC5)CC4)cn3)CC2)cc1C(F)(F)F (centres unmarked) [Example 1] is greater than or equal to 90%
Result string: True

Query string: # check: inhibition at 1 µM of N#Cc1ccc(N2CCC(C(=O)Nc3ccc(N4CCC(CN5CCC(Oc6ccc7c(c6)C(=O)N(C6CCC(=O)NC6=O)C7=O)CC5)CC4)cn3)CC2)cc1C(F)(F)F (centres unmarked) [Example 146] is greater than or equal to 90%
Result string: True

Query string: # check: inhibition at 1 µM of N#Cc1ccc(N2CCC(C(=O)Nc3ccc(N4CCC(CN5CCN(CC6CCN(c7cccc8c7C(=O)N(C7CCC(=O)NC7=O)C8=O)CC6)CC5)CC4)cn3)CC2)cc1C(F)(F)F (centres unmarked) [Example 13] is greater than or equal to 90%
Result string: True

Query string: # check: inhibition at 1 µM of N#Cc1ccc(N2CCC(C(=O)Nc3ccc(N4CCC(CN5CC(CN6CCN(c7ccc8c(c7)C(=O)N(C7CCC(=O)NC7=O)C8=O)CC6)C5)CC4)cn3)CC2)cc1C(F)(F)F (centres unmarked) [Example 79] is greater than or equal to 90%
Result string: True

Query string: # check: inhibition at 1 µM of N#Cc1ncc(N2CCC(C(=O)Nc3ccc(N4CCC(CN5CC6(CCN(c7ccc8c(c7)CN(C7CCC(=O)NC7=O)C8=O)CC6)C5)CC4)cn3)CC2)cc1C(F)(F)F (centres unmarked) [Example 137] is greater than or equal to 90%
Result string: False

Query string: # check: inhibition at 1 µM of N#Cc1ccc(N2CCC(C(=O)Nc3ccc(C#CC4CCN(CC5CN(c6ccc7c(c6)C(=O)N(C6CCC(=O)NC6=O)C7=O)C5)CC4)cn3)CC2)cc1C(F)(F)F (centres unmarked) [Example 132] is greater than or equal to 90%
Result string: False

---

Would you mind telling me the reported inhibition at 0.01 µM of each entry?
Biological target: Androgen Receptor (AR) protein (Homo sapiens, UniProt P10275, T878A)
Construct: endogenous in cells; host or cells: LNCaP
Test: Androgen Receptor (AR) protein degradation assay in LNCaP cells, western blotting
Format: cell-based
Settings: 20 h, 0.01 μM compound
Please reply with the bare figure in % and do not write the unit itself.

Query string: Any idea what its inhibition at 0.01 µM is? The compound is N#Cc1ccc(N2CCC(C(=O)Nc3ccc(N4CCC(CCN5CCN(c6ccc7c(c6)C(=O)N(C6CCC(=O)NC6=O)C7=O)CC5)CC4)cn3)CC2)cc1Cl (stereo not drawn)
Result string: 30

Query string: Any idea what its inhibition at 0.01 µM is? The compound is N#Cc1ccc(N2CCC(C(=O)Nc3ccc(CCN4CCC(CN5CCN(c6cc7c(cc6F)C(=O)N(C6CCC(=O)NC6=O)C7=O)CC5)CC4)cn3)CC2)cc1C(F)(F)F (stereo not drawn)
Result string: 8

Query string: Any idea what its inhibition at 0.01 µM is? The compound is N#Cc1ccc(N2CCC(C(=O)Nc3ccc(N4CCC(OCCN5CCN(c6cccc7c6C(=O)N(C6CCC(=O)NC6=O)C7=O)CC5)CC4)cn3)CC2)cc1C(F)(F)F (stereo not drawn)
Result string: -46
